- subject.of.test: EPHB2 (UniProt P29323)
- Sequence (P29323 whole entry, looked up): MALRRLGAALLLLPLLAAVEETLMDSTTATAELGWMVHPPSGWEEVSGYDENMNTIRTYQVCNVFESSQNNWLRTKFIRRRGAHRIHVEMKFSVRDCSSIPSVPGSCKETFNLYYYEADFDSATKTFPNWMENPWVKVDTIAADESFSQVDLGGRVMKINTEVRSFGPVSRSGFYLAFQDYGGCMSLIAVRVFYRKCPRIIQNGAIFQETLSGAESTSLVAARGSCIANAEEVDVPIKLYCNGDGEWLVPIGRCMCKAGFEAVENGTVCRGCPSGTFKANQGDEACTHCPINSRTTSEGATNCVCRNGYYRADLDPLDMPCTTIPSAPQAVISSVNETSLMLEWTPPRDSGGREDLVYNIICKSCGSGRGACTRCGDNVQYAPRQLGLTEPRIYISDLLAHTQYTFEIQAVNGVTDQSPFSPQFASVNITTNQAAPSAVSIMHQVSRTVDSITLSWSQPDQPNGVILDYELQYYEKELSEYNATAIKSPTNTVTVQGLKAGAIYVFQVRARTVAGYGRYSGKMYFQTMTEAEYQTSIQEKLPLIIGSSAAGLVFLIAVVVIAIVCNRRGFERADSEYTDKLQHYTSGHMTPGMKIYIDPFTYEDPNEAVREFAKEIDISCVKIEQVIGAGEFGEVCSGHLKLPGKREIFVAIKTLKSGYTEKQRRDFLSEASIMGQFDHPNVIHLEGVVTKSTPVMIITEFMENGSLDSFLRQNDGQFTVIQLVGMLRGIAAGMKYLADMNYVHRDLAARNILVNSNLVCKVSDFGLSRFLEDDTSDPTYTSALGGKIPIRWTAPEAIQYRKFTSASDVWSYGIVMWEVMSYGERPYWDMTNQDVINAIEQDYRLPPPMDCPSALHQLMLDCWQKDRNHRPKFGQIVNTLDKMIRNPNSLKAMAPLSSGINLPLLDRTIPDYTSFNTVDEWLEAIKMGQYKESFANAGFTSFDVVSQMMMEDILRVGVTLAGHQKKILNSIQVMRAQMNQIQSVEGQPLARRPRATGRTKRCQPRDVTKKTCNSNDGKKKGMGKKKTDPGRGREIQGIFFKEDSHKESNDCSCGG
- procedure.details: phosphorylation enrichment, bacterial display (enrichment ratio); higher = better substrate or ligand; peptides without Tyr show the background;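 note: 11-residue human phosphosite peptides and single-mutation variants displayed on the E. coli surface, counted by deep sequencing, each peptide's frequency after selection divided by its frequency in the unselected input library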;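 note: frequency after pTyr selection over input frequency; kinase dosed for 20-30% of maximal phosphorylation in three min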
Classify as follows. Reported phosphorylation enrichment greater than or equal to 0.5: MET. Reported phosphorylation enrichment below: NOT MET.

[
  {
    "sequence.input": "NYAKMYCNPDA [KNL1_Y489]",
    "label": "MET"
  }
]

Task: Is the recorded value of phosphorylation enrichment equal to or greater than 0.5 for this sequence? QEIATYPRLLE [KRT14_Y415_R416P]
Result: MET

Task: For this sequence, is measured phosphorylation enrichment 0.5 or higher? ENGPFYASFPP [GDAP2_Y488_T489A_YF]
Result: MET

Task: Hi, just wondering whether QLQVFYATLDQ [MIPEP_Y579] shows phosphorylation enrichment of 0.5 or higher.
Result: MET

Task: Dear colleague, could you confirm whether TALFIYIRPKA [OR10C1_Y258] has phosphorylation enrichment at or above 0.5?
Result: MET

Task: Please tell me: is the sequence LSSEMYVKSYT [F5_Y2149] at or over 0.5 in terms of phosphorylation enrichment?
Result: MET

Task: Is it the case that PVQAAYQKVVA [HBB_Y131] has phosphorylation enrichment reaching or exceeding 0.5?
Result: MET

Task: Given LNCDRYSAGLL [PDE6A_Y275_V277A] , state whether its phosphorylation enrichment is at least 0.5.
Result: NOT MET
